Measured growth inhibition accompanies every entry in the list below.
- method-summary: NCI Yeast Anticancer Drug Screen. Data for the sgs1 strain (AID 173);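 further: 0% = growth of vehicle-only control cultures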
- conditions: S. cerevisiae sgs1 mutant, at 11.0 µM, stronger effect = higher value
Compounds without any hit were thinned out: in the full panel of roughly 79,000, 15% have a hit. Starred links: 1 amine or outer side, 2 acyl side, 3 side chain; linkers in the order of their positions; H or OH if unused. Positions of bridges follow the written chain, without caps; N, C: chain ends. Non-standard residues stand in square brackets, D forms with d. Residues, ends and D or L forms follow the SMILES beside them. Chains are numbered I, II in the order given. Actinocin(9to1) = Cc1c2oc3c(C)ccc(C(=O)[*:1])c3nc-2c(C(=O)[*:2])c(N)c1=O; aThr = C[C@H](O)[C@H](N)C(=O)O; NMeV = CN[C@H](C(=O)O)C(C)C; Sar = CNCC(=O)O
endpoint-name: growth inhibition (%)

| compound | endpoint-name | recorded-result |
| --- | --- | --- |
| Cc1cccc(N2CCN(C(=O)/C(=C/c3ccccc3)NC(=O)c3ccccc3)CC2)c1 | growth inhibition | 16 |
| CCCCCCCCCC/C=C\CC(=O)O | growth inhibition | 2 |
| O=Cc1ccccc1B(O)O | growth inhibition | 96 |
| Cc1ccc(C(C)C)c(C(=C2C=CC(=[N+](C)C)C=C2)c2c(C(C)C)ccc(C)c2O)c1O | growth inhibition | 97 |
| COc1cc(C(C)(C)C)cc(OC)c1C(O)(c1c(OC)cc(C(C)(C)C)cc1OC)c1c(OC)cc(C(C)(C)C)cc1OC | growth inhibition | 95 |
| CC1=Cc2ccc(C)cc2C(=O)C1=O | growth inhibition | 65 |
| CN(C)/N=N/c1nc[nH]c1C(N)=O | growth inhibition | 1 |
| Cc1c2oc3c(C)ccc(C(=O)N[C@@H]4C(=O)N[C@H](C(C)C)C(=O)N5CCC[C@H]5C(=O)N(C)CC(=O)N(C)[C@@H](C(C)C)C(=O)O[C@H]4C)c3nc-2c(C(=O)N[C@@H]2C(=O)N[C@H](C(C)C)C(=O)N3CCC[C@H]3C(=O)N(C)CC(=O)N(C)[C@@H](C(C)C)C(=O)O[C@H]2C)c(N)c1=O (I: [aThr][dV]P[Sar][NMeV] / II: [aThr][dV]P[Sar][NMeV]; ester I:1-I:C, II:1-II:C; linker I:N-II:N via Actinocin(9to1)) | growth inhibition | 91 |
| O=C(Nn1c(-c2ccccc2)nc2ccccc2c1=O)c1ccc(Cl)cc1 | growth inhibition | 33 |
| O=S(=O)(O)CC[S][Sn]([S]CCS(=O)(=O)O)([c]1ccccc1)[c]1ccccc1 | growth inhibition | 88 |
| CCCCCC/C(C)=N/Nc1ccc([N+](=O)[O-])cc1[N+](=O)[O-] | growth inhibition | 8 |
| Cc1ccnc(NS(=O)(=O)c2ccc(Nc3c4ccccc4nc4ccccc34)cc2)n1 | growth inhibition | 43 |
| CCC(C)/C(C)=N/NC(N)=O (configuration not stated) | growth inhibition | 3 |
| c1cncc(C(Nc2cccc3cccnc23)Nc2cccc3cccnc23)c1 | growth inhibition | 59 |
| COc1ccc2nc(N/N=C/c3sccc3C)cc(C)c2c1 | growth inhibition | -16 |
| Cc1ccc(Nc2n[nH]c(=S)s2)cc1C | growth inhibition | -28 |
| CNc1ccc2[nH]c3ccccc3c2c1 | growth inhibition | 3 |
| O=C1c2ccccc2C(=O)C1C(c1ccc(F)cc1)C1C(=O)c2ccccc2C1=O | growth inhibition | 41 |
| CCOc1nc(OCC)nc(-c2cccn2-c2ccccc2)n1 | growth inhibition | 14 |
| O=C(Cc1ccccc1)c1ccc(O)cc1 | growth inhibition | -5 |
| COC1=C(N=[N+]=[N-])C(=O)c2ncccc2C1=O | growth inhibition | 56 |
| COc1ccc2c(C)cc(N/N=C/c3sccc3C)nc2c1 | growth inhibition | 14 |
| N#C/C(=C1C=C/C(=N\O)C(Cl)=C\1)c1ccccc1 | growth inhibition | 6 |
| CN(C)CCNC(=O)c1cccc2nc3c4ccccc4c4ccccc4c3nc12 | growth inhibition | 73 |
| Cc1nc2ccc(NCCN(C)C)c3c(=O)c4ccccc4n1c23 | growth inhibition | 24 |
| COc1ccc(C(=O)OCCc2ccccc2)cc1 | growth inhibition | -18 |
| Nc1c([N+](=O)[O-])cc2c3c(cccc13)CC2 | growth inhibition | 33 |
| COc1ccc(/C=C2\CCc3ccccc3C2=O)cc1OC | growth inhibition | -12 |
| Cc1ccc(N(C=O)c2c([N+](=O)[O-])cc([N+](=O)[O-])c3c2=[N+]([O-])CN=3)cc1 | growth inhibition | 51 |
| Cc1cc(NCCCN(C)C)c2ccc3c(ccc4c(NCCCN(C)C)cc(C)nc43)c2n1 | growth inhibition | 7 |
| CCN(CC)c1cccc(Nc2nc3ccccc3s2)c1 | growth inhibition | 7 |
| CCCCCCC(CCl)c1sc(-c2csc(CCNC(=O)OC(C)(C)C)n2)nc1C(=O)OC (configuration not stated) | growth inhibition | 1 |
| Cc1ccc(SSc2ccc(C)cc2[N+](=O)[O-])c([N+](=O)[O-])c1 | growth inhibition | 46 |
| Cc1ccc(Cl)c2c(=O)c3ccccc3[nH]c12 | growth inhibition | -1 |
| c1ccc2cc(OCC3CO3)c(OCC3CO3)cc2c1 (configuration not stated) | growth inhibition | 70 |
| CCCC#CCOC(=O)c1cc([N+](=O)[O-])cc([N+](=O)[O-])c1 | growth inhibition | 99 |
| COc1ccc2c(Cc3c4ccccc4cc4ccccc34)cncc2c1O | growth inhibition | 36 |
| N=c1oc2ccccc2cc1-c1nc2ccccc2[nH]1 | growth inhibition | 41 |
| NNc1nnc(-c2ccccc2)nc1Cc1ccccc1 | growth inhibition | -6 |
| CC(O)CN1C(=O)c2cccc3cc([N+](=O)[O-])cc(c23)C1=O (configuration not stated) | growth inhibition | 6 |
| CNC(=O)OCc1c(COC(=O)NC)c(C)n(-c2ccc(Cl)c(Cl)c2)c1C | growth inhibition | 1 |
| O=[N+]([O-])c1cccc2nc3ccccc3c(NCCC[N+]3([O-])CCOCC3)c12 | growth inhibition | 85 |
